Each recorded value in this set is attributed to PubChem BioAssay (NCI).

- Test system: NCI-H522 lung
- experimental protocol: NCI-60 one-dose screen, 48 h (100 = growth as untreated, 0 = no growth, -100 = all killed)
- measurement context: 10 µM unless noted
This is part of a sample that, as a whole, favours compounds with a hit. Of some 83,000 tested, about 20% had one in any assay.
Label scheme for growth: lower than 60% is class 0, 60% and above is class 1.

c1cc(N2CCCC2)c2nc(-c3[nH]ncc3Nc3ncnc4[nH]ccc34)[nH]c2c1 = class 0
COc1cc2nc(Cl)nc(Nc3cccc(C(=O)/C=C/c4ccccc4)c3)c2cc1OC = class 0
C=C1C(=O)O[C@H]2[C@H]1CC/C(Cn1cc(-c3ccc(F)cc3)nn1)=C\CC[C@@]1(C)O[C@@H]21 = class 0
Cn1c2c(c3ccc(Cl)cc31)-n1cccc1C2=O = class 1

Test whether the compound `O=C(O)c1cccc2c1Cc1cc([N+](=O)[O-])ccc1-2` records growth of 60% or higher. class 1

Test whether the compound `Cc1cc(N2CCOCC2)nc(N(CCCNc2ccnc3cc(Cl)ccc23)Cc2ccco2)n1` records growth of 60% or higher. class 0

Test whether the compound `Cc1ccc2[nH]cc(-c3nc(-c4cn(C)c5ncccc45)cs3)c2c1` records growth of 60% or higher. class 1

* * *

- System: A498 renal
- experimental protocol: NCI-60 one-dose screen, 48 h (100 = growth as untreated, 0 = no growth, -100 = all killed)
- measurement context: 10 µM unless noted
About 83,000 compounds went through this panel and 20% of them were active in at least one assay; those are over-represented in the sample as a whole.
metric name: growth (%)
Answer format: numeric, % implied, no suffix.

Some entries whose results are on file:
Cc1csc(Nc2nc(-c3ccc(Cl)cc3)nc(C(Cl)(Cl)Cl)n2)n1 = 85.2
CC(Cc1ccco1)C(=O)NC(N)=O (centres undefined) = 102
N#CC1=C(N)Oc2ccc3ccccc3c2C1c1ccccc1 (centres undefined) = 21.5
COc1cc2c(cc1-c1c(C)noc1C)ncc1nc(C3CCC(F)(F)CC3)n([C@@H](C)COC(F)F)c12 = -12.5

Return reported growth; argument: `C#CCn1c2c(c3ccccc31)C[C@]1(C)[C@H]3CC[C@@H]4[C@@H]5C(=CCC[C@H]5C(=C)C)CC[C@@]4(C)[C@]3(C)CC[C@H]1C2(C)C` 111

Return reported growth; argument: `Nc1nc2c3ccncc3cc(-c3cccc(Cl)c3)c2c2cnccc12` -12

Return reported growth; argument: `N#CCCCCCn1c2ccccc2c2c3[nH]c(=O)[nH]c(=O)c3c3c4ccccc4n(CCCCCC#N)c3c21` 54.5

Return reported growth; argument: `COC(=O)[C@]12CC[C@@H](C)[C@H](C)[C@@H]1C1=CC[C@@H]3[C@@](C)(CC#N)C4=C(C[C@@]3(C)[C@]1(C)CC2)OC[C@]4(C)C=O` -91.7

Return reported growth; argument: `CN(CSc1ccc(Cl)cc1)c1ccc(CSc2ccc(Cl)cc2)cc1` 71.8

Return reported growth; argument: `C/C(=N/NC(N)=S)C(=O)O` 110

Return reported growth; argument: `O=C(/C=C/c1cccc(O)c1)c1ccccc1O` 106

Return reported growth; argument: `COC(=O)[C@]12CC[C@@H](C)[C@H](C)[C@@H]1C1=CC[C@@H]3[C@@]4(C)C[C@@H](O)[C@H](O)[C@@](C)(CO)C4=CC[C@@]3(C)[C@]1(C)CC2` -94.7

* * *

- System: COLO 205 colon
- experimental protocol: NCI-60 one-dose screen, 48 h
- measurement context: 10 µM unless noted
Compounds without any hit were thinned out: in the full panel of roughly 83,000, 20% have a hit. The source made the active and inactive calls. The calls were made as follows: active = growth percent below 10; inactive = the rest.
Output constraint: value belongs to T = active, F = inactive

Would you please look over these solved cases?
C/C(=N\Nc1ccc2ccccc2n1)c1ccccn1 = T
COc1cc(-c2cc(-c3nc4ccccc4[nH]3)[nH]n2)cc(OC)c1OC = F
COc1ccc2c(c1)C/C(=C\c1cc(-c3ccc4c(c3)OCO4)n[nH]1)C2=O = F
COc1ccccc1CNc1nc(N)nc2[nH]c3ccc(O)cc3c12 = F
CCOC(=O)C/C(=C\c1ccccc1)C(C)=O = F
COc1ccc2c(c1)C/C(=C\c1cc(-c3cc(OC)c(OC)c(OC)c3)n[nH]1)C2=O = F

Shifting focus to the compound that follows.
So what was the verdict on `CC(C)=CCC[C@](C)(O)[C@H]1CC[C@]2(C)[C@@H]1CC[C@@H]1[C@@]3(C)C/C(=C/c4cccc([N+](=O)[O-])c4)C(=O)C(C)(C)[C@@H]3CC[C@]12C` in this test? F

* * *

- Tested on: SK-MEL-5 melanoma
- experimental protocol: NCI-60 one-dose screen, 48 h
- measurement context: 10 µM unless noted
This is part of a sample that, as a whole, favours compounds with a hit. Of some 83,000 tested, about 20% had one in any assay. Activity calls are given as the source filed them. Rule for the calls: active = growth percent below 10; inactive = the rest.
Output constraint: value belongs to true (1) for active, false (0) for inactive

Would you please look over these solved cases?
COc1cccc(-c2nn(-c3ccccc3)cc2-c2ccnc(NCCCNS(=O)(=O)c3cccc(F)c3)c2)c1 = true (1)
Cc1ccc(N(CC(=O)Nc2ccc(S(=O)(=O)NC3CCN(C)CC3)cc2)S(=O)(=O)c2ccc(Cl)cc2)cc1 = true (1)
Cc1ccc(S(=O)(=O)Nc2ccc(-c3cc(-c4cccc(F)c4)c(C#N)c(N)n3)cc2)cc1 = false (0)

So what was the verdict on `Cc1cc(N2CCCCC2)nc(N(CCNc2ccnc3cc(Cl)ccc23)Cc2ccco2)n1` in this test? true (1)

So what was the verdict on `COc1ccc(NC(=S)N/N=C/c2ccccc2SSCCC(=O)OC[C@H]2O[C@H](O)[C@H](O)[C@@H](O)[C@@H]2O)cc1` in this test? false (0)

* * *

- Test system: MCF7 breast
- experimental protocol: NCI-60 one-dose screen, 48 h
- measurement context: 10 µM unless noted
The panel holds about 83,000 compounds, 20% with a hit somewhere; the sample as a whole holds those more often. The source made the active and inactive calls. The calls were made as follows: active = growth percent below 10; inactive = the rest.
Output constraint: value belongs to active, inactive

Would you please look over these solved cases?
O=C1C=Cc2ncccc2C1=O = inactive
CCc1ccc(-c2ccc(Nc3ccccc3)nn2)cc1S(N)(=O)=O = inactive

Shifting focus to the compound that follows.
So what was the verdict on `CN1CCN(c2ccc3nc(-c4[nH]ncc4Nc4ncnc5c4OCCCN5)[nH]c3c2)CC1` in this test? active

* * *

- Test system: NCI-H226 lung
- experimental protocol: NCI-60 one-dose screen, 48 h
- measurement context: 10 µM unless noted
About 83,000 compounds went through this panel and 20% of them were active in at least one assay; those are over-represented in the sample as a whole. Active and inactive are the calls of the source. The calls were made as follows: active = growth percent below 10; inactive = the rest.
Output constraint: value belongs to yes (1) for active, no (0) for inactive

Would you please look over these solved cases?
CC1(C)CC[C@]2(C(=O)NCCNCCN)CC[C@]3(C)C(=CC[C@@H]4[C@@]5(C)CCC(=O)C(C)(C)[C@@H]5CC[C@]43C)[C@@H]2C1 = no (0)
COc1ccc(-c2cc(-c3c(C)oc4cc5occc5c(OC)c4c3=O)nc(N)c2C#N)cc1OC = no (0)
O=C(O)/C(=C/c1ccc(O)cc1)c1ccccc1 = no (0)
CCCCC[C@H]1C/C=C2/C(=O)C(Cl)=C[C@@H]2C/C=C\CCCC(=O)O1 = yes (1)
Cc1cccc2c1NC(=O)[C@@]21[C@H](C(=O)c2ccccc2)[C@]2(C(=O)Nc3ccccc32)[C@H]2CCCN21 = no (0)
O=c1[nH]c2c3ccncc3cc(-c3cccc(Cl)c3)c2c2cnccc12 = no (0)
CC1(C)C=CC[C@]2(C)[C@H]3CC[C@@H]4[C@H]5[C@H](C(=O)/C=C/c6cccnc6)CC[C@]5(CO)CC[C@@]4(C)[C@]3(C)CC[C@@H]12 = yes (1)
Cc1ccc2c(c1)c1nc3cc(C)c(C)cc3nc1n2CCN(C)C = yes (1)

So what was the verdict on `CN1CCN(c2nc(-c3csc(-c4cccs4)n3)cc3ccccc23)CC1` in this test? no (0)

So what was the verdict on `Cc1ccncc1C(=O)O` in this test? no (0)

So what was the verdict on `OCC(CO)(CCl)CCl` in this test? no (0)

So what was the verdict on `COc1c(N)c2c(c([N+](=O)[O-])c1OC)C(=O)OC2` in this test? no (0)

* * *

- Tested on: HOP-62 NSCLC
- experimental protocol: NCI-60 one-dose screen, 48 h
- measurement context: 10 µM unless noted
This is part of a sample that, as a whole, favours compounds with a hit. Of some 83,000 tested, about 20% had one in any assay. Active and inactive are the calls of the source. The calls were made as follows: active = growth percent below 10; inactive = the rest.
Output constraint: value belongs to active, inactive

COc1ccccc1CNc1nc(N)nc2[nH]c3ccc(O)cc3c12 = inactive

So what was the verdict on `N=c1c(S(=O)(=O)c2ccccc2)cc2c(=O)n3ccccc3nc2n1C1CCCC1` in this test? inactive

So what was the verdict on `N#C/C(=C\c1ccc(-c2ccc(Cl)cc2)o1)c1nc(-c2ccco2)cs1` in this test? inactive

So what was the verdict on `COc1ccc(-c2nc(SCC(=O)Nc3ccc(C(C)=O)cc3)[nH]c(=O)c2C#N)cc1` in this test? inactive

So what was the verdict on `COc1cnc2c(c1)C(=O)c1c-2n(CCCN2CCN(CCO)CC2)c(=O)c2cc([N+](=O)[O-])ccc12` in this test? inactive

So what was the verdict on `COc1ccc(NC(=O)c2ccoc2COc2ccccc2)cc1` in this test? inactive

So what was the verdict on `O=C1CCCC=CC[C@H]2C=C(Cl)C(=O)C2=CC[C@H](CCCCC(F)(F)F)OC(=O)CCCC=CC[C@H]2C=C(Cl)C(=O)C2=CC[C@H](CCCCC(F)(F)F)OC(=O)CCCC=CC[C@H]2C=C(Cl)C(=O)C2=CC[C@H](CCCCC(F)(F)F)O1` in this test? inactive

So what was the verdict on `Cc1nnc2nc(N)[nH]n2c1=O` in this test? inactive

So what was the verdict on `COc1ccc2c(c1)c(-c1nc(-c3cn(C)c4ncccc34)cs1)cn2CCCN1CCCCC1` in this test? inactive

So what was the verdict on `O=C1c2cccc3cccc(c23)C(=O)N1CC#Cc1ccc2c3c(cccc13)C(=O)N(CCN1CCNCC1)C2=O` in this test? inactive

So what was the verdict on `COc1cc2ncnc(Nc3ccc(OCc4cccc(F)c4)c(Cl)c3)c2cc1NC(=O)C1CCCC1` in this test? inactive

So what was the verdict on `N=c1ccc2nc3c(cc(N)c4ccccc43)oc-2c1` in this test? active
